These entries and their values trace back to paper PMC5716069.

# SYSTEM_NAME: T1, Loqs dsRBD2 (Drosophila melanogaster, UniProt Q9VJY9-4 245-322)
# T1 sequence: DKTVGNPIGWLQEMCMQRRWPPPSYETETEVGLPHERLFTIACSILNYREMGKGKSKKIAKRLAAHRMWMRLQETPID
# MEASUREMENT_NOTES: fluorescence anisotropy
pKd: −log10 of the molar value.

BINDER	pKd
35 nt dsRNA, FITC (dsRNA, 5'-phosphate) RNA 1: GAUUCAUACAAGUGAGAUCAUUUUGAAAGCUGAUU RNA 2: UCAGCUUUCAAAAUGAUCUCACUUGUAUGAAUCAA	6.64
ban-siRNA, FITC (dsRNA, 5'-phosphate) RNA 1: UGAGAUCAUUUUGAAAGCUGAUU RNA 2: UCAGCUUUCAAAAUGAUCUCACU	6.56
bantam miRNA/miRNA*, FITC (dsRNA, 5'-phosphate) RNA 1: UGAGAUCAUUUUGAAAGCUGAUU RNA 2: UCGGUUUUCGAUUUGGUUUGACU	6.62
14 nt RNA, FITC (dsRNA, 5'-phosphate) RNA 1: UGAGAUCAUUUUGA RNA 2: UCAAAAUGAUCUCAUU	6.48
